- system: Vascular endothelial growth factor receptor 2 (Homo sapiens)
- conditions-used: at 0.1 µM
- Description: GSK_PKIS: KDR mean inhibition at 0.1 uM [Nanosyn]
Documented inhibition across a set of compounds
Hey, just the number and the unit after it is fine.

smiles-repr: COc1ccc2ncn(-c3cc(O[C@H](C)c4ccccc4Cl)c(C(N)=O)s3)c2c1
inhibition: 3.61%

smiles-repr: CCS(=O)(=O)c1ccc(OC)c(Nc2ncc(-c3ccccc3Cl)o2)c1
inhibition: 8.35%

smiles-repr: C[C@@H](Oc1cc(-n2cnc3ccc(OCC4CCN(C)CC4)cc32)sc1C(N)=O)c1ccccc1Cl
inhibition: 7.07%

Lookup: Item under review: CN(C)c1ccc2c(c1)/C(=C/Nc1ccc(S(N)(=O)=O)cc1)C(=O)N2 . Reported inhibition?
Found: 14.6%

Lookup: Another compound: NC(=O)Cc1ccccc1Oc1nccc(-c2c(-c3ccc(F)cc3)ncn2C2CCNCC2)n1
Found: 1.89%

Lookup: Another compound: COc1cc(Nc2ncc3c(C)nc(-c4cccc(C(F)(F)F)c4)n3n2)cc(OC)c1OC
Found: 4.26%

Lookup: Another compound: NS(=O)(=O)c1ccc(N/N=C2\C(=O)Nc3ccc(-c4cnco4)cc32)cc1
Found: 6.94%

Lookup: Another compound: Cc1ccc(C(=O)NC(C)C)cc1-c1ccc(C(=O)NCC2CC2)cc1
Found: -1.43%

Lookup: Another compound: CCS(=O)(=O)c1ccc(OC)c(Nc2ncc(-c3cccc(-c4ccccc4F)c3)o2)c1
Found: 66.9%

Lookup: Another compound: O=C(Nc1n[nH]c2cc(-c3ccccc3)ccc12)C1CC1
Found: 4.79%

Lookup: Another compound: c1ccc(Oc2ccc(Nc3ncc(-c4ccccc4)o3)cc2)cc1
Found: 4.37%

###

- system: Platelet-derived growth factor receptor alpha (Homo sapiens) (UniProt P16234);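 further: values are mean percent inhibition of PDGFRA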
- Sequence (P16234 whole entry): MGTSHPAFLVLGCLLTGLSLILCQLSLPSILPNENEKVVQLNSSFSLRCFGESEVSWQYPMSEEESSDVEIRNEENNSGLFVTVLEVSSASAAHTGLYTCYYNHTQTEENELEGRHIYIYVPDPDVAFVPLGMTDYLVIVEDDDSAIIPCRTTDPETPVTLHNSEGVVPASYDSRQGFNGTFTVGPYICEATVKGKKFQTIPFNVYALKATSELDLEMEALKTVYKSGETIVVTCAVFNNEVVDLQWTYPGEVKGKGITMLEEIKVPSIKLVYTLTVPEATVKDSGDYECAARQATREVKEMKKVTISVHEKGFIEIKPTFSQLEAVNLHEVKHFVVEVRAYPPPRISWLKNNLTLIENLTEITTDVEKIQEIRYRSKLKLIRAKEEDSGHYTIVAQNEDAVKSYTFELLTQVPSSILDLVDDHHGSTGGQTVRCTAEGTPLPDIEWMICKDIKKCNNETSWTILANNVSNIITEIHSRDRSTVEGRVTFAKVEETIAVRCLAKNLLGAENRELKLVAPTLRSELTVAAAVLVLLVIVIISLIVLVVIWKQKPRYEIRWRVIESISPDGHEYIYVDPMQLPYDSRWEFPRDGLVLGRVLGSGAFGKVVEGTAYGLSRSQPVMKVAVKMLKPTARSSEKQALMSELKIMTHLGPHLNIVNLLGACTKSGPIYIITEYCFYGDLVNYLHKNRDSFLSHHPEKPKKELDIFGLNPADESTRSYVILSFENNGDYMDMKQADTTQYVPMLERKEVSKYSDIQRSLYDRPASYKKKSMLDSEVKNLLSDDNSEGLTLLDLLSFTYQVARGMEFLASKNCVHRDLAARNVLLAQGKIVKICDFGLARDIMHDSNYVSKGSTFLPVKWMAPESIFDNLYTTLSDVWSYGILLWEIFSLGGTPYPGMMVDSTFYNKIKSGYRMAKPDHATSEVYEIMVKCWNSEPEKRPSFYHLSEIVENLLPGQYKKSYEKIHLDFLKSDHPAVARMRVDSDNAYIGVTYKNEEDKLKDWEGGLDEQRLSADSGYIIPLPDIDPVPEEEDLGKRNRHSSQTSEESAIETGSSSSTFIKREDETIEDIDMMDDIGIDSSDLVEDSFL
- conditions-used: at 1 µM
outcome-measure: inhibition (%)
Give a bare numeral; the unit % is implied.

Field: example entries. Status: answers known.
molecule: CCC(=O)Nc1ccc(C)c(-c2ccc(C(=O)NCC3CC3)cc2)c1
inhibition / %: 11.6
--
molecule: O=C1Nc2ccc(I)cc2C1=Cc1cc(Br)c(O)c(Br)c1
inhibition / %: 9.37
--
molecule: NCc1ccc(-n2c(-c3nonc3N)nc3cnccc32)cc1
inhibition / %: 18

Lookup: Item under review: Fc1ccc(-c2c(-c3ccncc3)nc3n2CCS3)cc1 . Reported inhibition?
Found: 11.9

Lookup: Another molecule: Nc1nccc(-c2c(-c3ccc(F)cc3)ncn2C2CCC(O)CC2)n1 (stereo unspecified)
Found: 21.6

Lookup: Another molecule: NC(=O)c1cc(-c2ccncc2)cc(-c2ccccc2)c1N
Found: 36.2

Lookup: Another molecule: COc1cccc(/C=N/Nc2ncnc3c2cnn3-c2cccc(OC)c2)c1
Found: 14.9

Lookup: Another molecule: C/C(Nc1ccc(S(N)(=O)=O)cc1)=C1/C(=O)Nc2ccccc21
Found: 53.2

Lookup: Another molecule: Cc1ccc(C(=O)NC(C)C)cc1-c1ccc(C(=O)NCC2CC2)cc1
Found: 2.31

Lookup: Another molecule: COc1cc2ncn(-c3cc(OCc4ccccc4C(F)(F)F)c(C(C)=O)s3)c2cc1OC
Found: 31.8

Lookup: Another molecule: COc1cc(Nc2ncc3c(C)nc(-c4cccc(Oc5ccccc5)c4)n3n2)cc(OC)c1OC
Found: 10.5

###

Documented inhibition across a set of molecules
- Test system: Epidermal growth factor receptor (Homo sapiens), P00533 [L861Q]
- Sequence (P00533 whole entry L861Q): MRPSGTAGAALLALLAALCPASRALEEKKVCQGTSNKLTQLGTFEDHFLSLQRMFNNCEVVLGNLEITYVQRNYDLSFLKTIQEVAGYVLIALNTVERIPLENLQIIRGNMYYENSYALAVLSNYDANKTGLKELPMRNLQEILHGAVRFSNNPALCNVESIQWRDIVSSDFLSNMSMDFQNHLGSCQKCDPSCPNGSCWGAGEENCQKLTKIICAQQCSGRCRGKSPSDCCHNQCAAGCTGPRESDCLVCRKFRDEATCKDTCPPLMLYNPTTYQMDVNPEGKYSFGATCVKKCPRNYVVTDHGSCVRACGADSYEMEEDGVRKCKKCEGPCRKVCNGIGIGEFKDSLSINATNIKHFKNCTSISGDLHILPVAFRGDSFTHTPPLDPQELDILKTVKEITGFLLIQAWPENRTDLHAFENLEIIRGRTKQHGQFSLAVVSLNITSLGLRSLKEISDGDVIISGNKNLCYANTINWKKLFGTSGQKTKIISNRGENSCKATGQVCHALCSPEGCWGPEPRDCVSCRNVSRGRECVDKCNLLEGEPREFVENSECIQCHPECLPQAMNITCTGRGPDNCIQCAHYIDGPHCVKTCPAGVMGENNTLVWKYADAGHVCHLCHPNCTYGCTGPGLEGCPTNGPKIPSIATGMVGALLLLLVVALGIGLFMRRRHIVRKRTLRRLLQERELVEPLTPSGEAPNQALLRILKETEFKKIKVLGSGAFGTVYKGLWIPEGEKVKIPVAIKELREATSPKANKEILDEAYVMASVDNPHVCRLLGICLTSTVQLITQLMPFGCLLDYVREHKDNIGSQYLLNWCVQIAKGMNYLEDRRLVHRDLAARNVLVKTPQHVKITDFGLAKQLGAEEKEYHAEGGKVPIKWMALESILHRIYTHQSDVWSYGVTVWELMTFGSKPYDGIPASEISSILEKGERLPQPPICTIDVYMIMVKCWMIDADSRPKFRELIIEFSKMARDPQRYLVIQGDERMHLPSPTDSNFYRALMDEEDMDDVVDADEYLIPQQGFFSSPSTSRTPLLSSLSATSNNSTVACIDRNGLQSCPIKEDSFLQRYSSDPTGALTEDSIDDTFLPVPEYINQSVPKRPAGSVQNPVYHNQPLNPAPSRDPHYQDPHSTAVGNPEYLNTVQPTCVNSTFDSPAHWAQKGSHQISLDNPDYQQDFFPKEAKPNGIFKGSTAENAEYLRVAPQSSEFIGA
- conditions-used: at 0.1 µM
Give a bare numeral; the unit % is implied.

Field: example entries. Status: answers known.
smiles-repr: Fc1ccc(-c2ncn(CCCN3CCOCC3)c2-c2ccncc2)cc1
outcome-measure: inhibition
unit-info: %
measurement: -1.64
//
smiles-repr: N#Cc1ccc(Oc2nccc(-c3c(-c4ccc(F)cc4)ncn3C3CCNCC3)n2)cc1
outcome-measure: inhibition
unit-info: %
measurement: 3.45
//
smiles-repr: CN(C)CCOc1ccc(-c2cc(-c3ccc4c(c3)CCC4=NO)c(-c3ccncc3)o2)cc1
outcome-measure: inhibition
unit-info: %
measurement: -0.03

Lookup: Item under review: NS(=O)(=O)c1ccc(N/N=C2\C(=O)Nc3ccc(-c4cnco4)cc32)cc1 . Reported inhibition?
Found: 2.45

Lookup: Another molecule: O=C(NCC1CC1)c1ccc(-c2cccc(C(=O)NC3CC3)c2)cc1
Found: -0.16

Lookup: Another molecule: c1ccc(Oc2ccc(Nc3ncc(-c4ccccc4)o3)cc2)cc1
Found: 1.49

Lookup: Another molecule: O=C(Nc1ccc(Oc2ccc3[nH]c(NC(=O)c4ccccc4)nc3c2)cc1)Nc1cc(C(F)(F)F)ccc1F
Found: 2.47

###

- system: Mitogen-activated protein kinase 3 (Homo sapiens) (UniProt P27361)
- Sequence (P27361 whole entry): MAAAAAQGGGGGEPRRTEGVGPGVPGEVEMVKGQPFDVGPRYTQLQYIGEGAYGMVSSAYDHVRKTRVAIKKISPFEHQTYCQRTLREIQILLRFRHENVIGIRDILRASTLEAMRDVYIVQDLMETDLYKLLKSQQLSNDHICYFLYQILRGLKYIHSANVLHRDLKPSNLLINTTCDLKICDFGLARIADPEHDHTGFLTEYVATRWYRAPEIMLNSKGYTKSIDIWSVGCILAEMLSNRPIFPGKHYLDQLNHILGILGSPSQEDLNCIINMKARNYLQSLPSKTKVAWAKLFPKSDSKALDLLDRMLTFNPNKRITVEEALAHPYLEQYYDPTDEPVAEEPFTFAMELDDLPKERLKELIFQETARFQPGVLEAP
- conditions-used: at 1 µM
outcome-measure: inhibition (%)
Give a bare numeral; the unit % is implied.

Field: example entries. Status: answers known.
smiles-repr: NS(=O)(=O)c1ccc(Nc2cc(-c3ccc(O)c(F)c3)n[nH]2)cc1
measurement: -1.26
--
smiles-repr: Cc1ccc(C(=O)NC(C)C)cc1-c1ccc(C(=O)NCC2CC2)cc1
measurement: -0.93

Lookup: Write down the reported inhibition of CN1CCN(CCCNc2nc3ccc(Oc4ccc(NC(=O)Nc5cc(C(F)(F)F)ccc5F)cc4)cc3[nH]2)CC1 , test system: Mitogen-activated protein kinase 3 (Homo sapiens) (UniProt P27361).
Found: 0.83

Lookup: Another compound: CS(=O)(=O)CCNCc1ccc(-c2ccc3ncnc(Nc4ccc(OCc5ccccc5)c(Br)c4)c3c2)o1
Found: 4.46

Lookup: Another compound: Cc1ccc(C(=O)NC2CCC2)cc1-c1ccc(C(=O)NCC2CC2)cc1
Found: 2.32

Lookup: Another compound: Fc1ccc(-c2ncn(CCCN3CCOCC3)c2-c2ccncc2)cc1
Found: 1.77

###

- system: Mitogen-activated protein kinase 3 (Homo sapiens) (UniProt P27361)
- conditions-used: at 0.1 µM
outcome-measure: inhibition (%)
Give a bare numeral; the unit % is implied.

smiles-repr: c1ccc(-c2n[nH]cc2-c2ccnc(-c3ccc(OCCN4CCOCC4)cc3)c2)nc1
measurement: -0.63
//
smiles-repr: COc1cc(Nc2ncc3c(C)nc(-c4cccc(Oc5ccccc5)c4)n3n2)cc(OC)c1OC
measurement: 4.14

Lookup: Item under review: O=C1Nc2ccccc2/C1=C/Nc1ccc(-n2cncn2)cc1 . Reported inhibition?
Found: 93.3

###

Documented inhibition across a set of compounds
- system: Ribosomal protein S6 kinase beta-1 (Homo sapiens);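 further: values are mean inhibition of p70S6K1, measured as part of the GSK PKIS panel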
- conditions-used: at 1 µM
Give a bare numeral; the unit % is implied.

smiles-repr: COc1cc(Nc2ncc(-c3ccccc3)o2)cc(OC)c1OC
inhibition (%): 3.55
//
smiles-repr: O=C1NC(=O)C(c2cccc(Cl)c2)=C1Nc1ccc(Cl)c(C(=O)O)c1
inhibition (%): 1.96

Attention now turns to another entry.
Lookup: Item under review: Fc1ccc(-c2ncn(C3CCNCC3)c2-c2ccnc(Oc3ccc(F)c(F)c3)n2)cc1 . Reported inhibition?
Found: 0.63

###

Documented inhibition across a set of compounds
- system: Tyrosine-protein kinase SYK (Homo sapiens) (UniProt P43405)
- conditions-used: at 0.1 µM
Hey, just the number and the unit after it is fine.

Lookup: Write down the reported inhibition of COc1cc2ncn(-c3cc(OCc4cccs4)c(C(N)=O)s3)c2cc1OC , test system: Tyrosine-protein kinase SYK (Homo sapiens) (UniProt P43405).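 Further: reported percentages are mean inhibition values for SYK.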
Found: 0.21%

Lookup: Another compound: NCc1ccc(-n2c(-c3nonc3N)nc3cnccc32)cc1
Found: -3.99%

Lookup: Another compound: N#Cc1ccc(Oc2nccc(-c3c(-c4ccc(F)cc4)ncn3C3CCNCC3)n2)cc1
Found: -0.77%

Lookup: Another compound: CN(C)CCOc1ccc(-c2cc(-c3ccc4c(c3)CCC4=NO)c(-c3ccncc3)o2)cc1
Found: 0.85%

###

- system: Vascular endothelial growth factor receptor 1 (Homo sapiens) (UniProt P17948)
- Sequence (P17948 whole entry): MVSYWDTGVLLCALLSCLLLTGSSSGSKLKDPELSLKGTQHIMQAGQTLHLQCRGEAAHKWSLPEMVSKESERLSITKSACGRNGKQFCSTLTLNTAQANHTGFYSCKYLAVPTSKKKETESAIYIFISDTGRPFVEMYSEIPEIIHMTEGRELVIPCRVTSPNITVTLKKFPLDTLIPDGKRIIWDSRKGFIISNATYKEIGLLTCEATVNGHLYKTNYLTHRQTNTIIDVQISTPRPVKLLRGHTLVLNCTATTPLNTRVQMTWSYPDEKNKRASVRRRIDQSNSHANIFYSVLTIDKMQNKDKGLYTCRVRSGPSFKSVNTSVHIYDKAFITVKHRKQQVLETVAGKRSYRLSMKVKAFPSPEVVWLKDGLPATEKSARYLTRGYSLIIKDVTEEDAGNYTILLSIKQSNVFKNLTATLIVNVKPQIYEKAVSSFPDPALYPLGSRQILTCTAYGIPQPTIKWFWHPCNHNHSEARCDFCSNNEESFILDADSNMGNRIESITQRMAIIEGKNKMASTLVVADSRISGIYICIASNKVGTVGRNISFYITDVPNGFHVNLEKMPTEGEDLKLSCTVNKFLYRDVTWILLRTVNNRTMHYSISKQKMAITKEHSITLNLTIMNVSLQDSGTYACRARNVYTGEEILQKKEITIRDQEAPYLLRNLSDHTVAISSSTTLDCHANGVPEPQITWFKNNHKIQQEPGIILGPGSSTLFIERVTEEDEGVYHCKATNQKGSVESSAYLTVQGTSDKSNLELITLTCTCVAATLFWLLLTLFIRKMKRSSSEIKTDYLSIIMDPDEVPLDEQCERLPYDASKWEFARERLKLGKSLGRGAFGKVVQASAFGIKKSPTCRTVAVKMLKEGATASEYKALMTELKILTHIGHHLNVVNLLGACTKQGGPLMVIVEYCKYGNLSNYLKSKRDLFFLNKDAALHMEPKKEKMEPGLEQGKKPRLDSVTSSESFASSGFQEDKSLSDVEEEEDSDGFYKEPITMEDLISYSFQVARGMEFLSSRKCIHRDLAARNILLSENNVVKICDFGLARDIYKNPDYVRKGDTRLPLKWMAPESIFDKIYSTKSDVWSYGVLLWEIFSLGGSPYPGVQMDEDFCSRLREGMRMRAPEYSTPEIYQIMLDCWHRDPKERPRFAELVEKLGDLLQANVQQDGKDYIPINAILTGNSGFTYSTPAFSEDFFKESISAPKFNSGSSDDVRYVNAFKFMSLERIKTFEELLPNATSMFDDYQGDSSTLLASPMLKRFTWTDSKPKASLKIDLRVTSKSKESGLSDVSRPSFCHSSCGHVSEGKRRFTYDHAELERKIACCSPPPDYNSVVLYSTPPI
- conditions-used: at 1 µM
- Description: GSK_PKIS: FLT1 mean inhibition at 1 uM [Nanosyn]
Documented inhibition across a set of compounds
Give a bare numeral; the unit % is implied.

Lookup: Item under review: COc1ccc(C2=C(N3CCc4ccccc43)C(=O)NC2=O)cc1 . Reported inhibition?
Found: 2.89

Lookup: Another compound: CNC(=O)c1cncc(/C=C/c2c(C)cccc2C)c1
Found: 1.51

Lookup: Another compound: O=C1NC(=O)C(c2cccc(Cl)c2)=C1Nc1ccc(Cl)c(C(=O)O)c1
Found: 7.03

Lookup: Another compound: COc1ccc2ncn(-c3cc(O[C@H](C)c4ccccc4Cl)c(C(N)=O)s3)c2c1
Found: 3.7

Lookup: Another compound: CCc1ccc(Oc2nccc(-c3c(-c4ccc(F)cc4)ncn3C3CCNCC3)n2)cc1
Found: 3.25

Lookup: Another compound: O=C(Nc1n[nH]c2cc(-c3ccccc3)ccc12)C1CC1
Found: 2.3

Lookup: Another compound: CCS(=O)(=O)c1ccc(OC)c(Nc2ncc(-c3cccc(-c4ccccc4F)c3)o2)c1
Found: 68.4

###

- Tested on: Tyrosine-protein kinase ABL1 (Homo sapiens), P00519 [E255K]
- conditions-used: at 0.1 µM
Documented inhibition across a set of compounds
Give a bare numeral; the unit % is implied.

Field: example entries. Status: answers known.
smiles-repr: NC(=O)Cc1ccccc1Oc1nccc(-c2c(-c3ccc(F)cc3)ncn2C2CCNCC2)n1
system: Tyrosine-protein kinase ABL1 (Homo sapiens), P00519 [E255K]
unit-info: %
inhibition: 0.8

smiles-repr: CN1CCN(CCCNc2nc3ccc(Oc4ccc(NC(=O)Nc5cc(C(F)(F)F)ccc5F)cc4)cc3[nH]2)CC1
system: Tyrosine-protein kinase ABL1 (Homo sapiens), P00519 [E255K]
unit-info: %
inhibition: 0.07

Attention now turns to another entry.
Lookup: Item under review: CCS(=O)(=O)c1ccc(OC)c(Nc2ncc(-c3cccc(-c4ccccc4F)c3)o2)c1 . Reported inhibition?
Found: 40.6

meta.source: ChEMBL document CHEMBL1961873
